# ASSAY DETAILS: molar heat capacity at constant pressure
# SETUP CONDITIONS: 343.15 K; 101 kPa; Liquid; Large sample (1 g) DSC
RESULT TYPE: molar heat capacity at constant pressure (J/K/mol)
Express the result in J/K/mol but write the number alone.

// lookup molar heat capacity at constant pressure for O=S1(=O)CCCC1 194

Quick one: COCCOCCOCCOC 379

Quick one: O=CN1CCOCC1 200

Quick one: CN1CCCC1=O 176

----------
# ASSAY DETAILS: molar heat capacity at constant pressure
# SETUP CONDITIONS: 328.15 K; 101 kPa; Liquid; Large sample (1 g) DSC
± gives the expanded uncertainty stated by the source.
RESULT TYPE: molar heat capacity at constant pressure
Just so you know, I need the unit written after the number.

// lookup molar heat capacity at constant pressure for CN1CCCC1=O 172 ± 7 J/K/mol

Quick one: O=CN1CCOCC1 193 ± 8 J/K/mol

Quick one: COCCOCCOCCOC 371 ± 16 J/K/mol

Quick one: O=S1(=O)CCCC1 189 ± 8 J/K/mol

----------
# ASSAY DETAILS: molar heat capacity at constant pressure
# SETUP CONDITIONS: 308.15 K; 101 kPa; Liquid; Large sample (1 g) DSC
Consider the following compounds; for each one, report its molar heat capacity at constant pressure.
Express the result in J/K/mol but write the number alone.

// lookup molar heat capacity at constant pressure for O=CN1CCOCC1 [N-formylmorpholine] 186

Quick one: CN1CCCC1=O [N-methylpyrrolidone] 167

Quick one: O=S1(=O)CCCC1 [sulfolane] 184

Quick one: COCCOCCOCCOC [2,5,8,11-tetraoxadodecane] 364

----------
# ASSAY DETAILS: molar heat capacity at constant pressure
# SETUP CONDITIONS: 348.15 K; 101 kPa; Liquid; Large sample (1 g) DSC
RESULT TYPE: molar heat capacity at constant pressure (J/K/mol)
Express the result in J/K/mol but write the number alone.

// lookup molar heat capacity at constant pressure for CN1CCCC1=O 177

Quick one: O=CN1CCOCC1 201

Quick one: O=S1(=O)CCCC1 197

Quick one: COCCOCCOCCOC 381

----------
# ASSAY DETAILS: molar heat capacity at constant pressure
# SETUP CONDITIONS: 353.15 K; 101 kPa; Liquid; Large sample (1 g) DSC
Consider the following compounds; for each one, report its molar heat capacity at constant pressure.
Express the result in J/K/mol but write the number alone.

// lookup molar heat capacity at constant pressure for COCCOCCOCCOC 382

Quick one: O=S1(=O)CCCC1 199

Quick one: CN1CCCC1=O 178

Quick one: O=CN1CCOCC1 202

----------
# ASSAY DETAILS: molar heat capacity at constant pressure
# SETUP CONDITIONS: 313.15 K; 101 kPa; Liquid; Large sample (1 g) DSC
± gives the expanded uncertainty stated by the source.
RESULT TYPE: molar heat capacity at constant pressure
Just so you know, I need the unit written after the number.

// lookup molar heat capacity at constant pressure for O=S1(=O)CCCC1 185 ± 8 J/K/mol

Quick one: CN1CCCC1=O 168 ± 7 J/K/mol

Quick one: COCCOCCOCCOC 366 ± 16 J/K/mol

Quick one: O=CN1CCOCC1 188 ± 8 J/K/mol
